From: PubChem BioAssay (EPA / NIEHS)

Tested on: DIO1 (gene 1733)
Assay: CCTE_GLTED_hDIO1: CCTE's human Deiodinase 1 (DIO1) Inhibition Assay, Great Lakes Toxicology and Ecology Division (GLTED) Lab (AID 2283987);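 note: isolated human DIO1 enzyme in a cell-free setup rather than cells; enzyme activity read as free iodide liberated from substrate via Sandell-Kolthoff colorimetry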
Results filed as inconclusive are left out. Active and inactive are the calls of the source. Rule for the calls: active = hit-call score of the fitted dose curve at least 0.9, where 1 is the maximum; inconclusive = response in the unintended direction; inactive = score below 0.9.
Measure: AC50

Completed entries (count: 5):
CC(C)(C)CC(C)(C)c1ccc(O)cc1    90.7 µM (active)
COP(=O)(OC)O/C(=C\Cl)c1cc(Cl)c(Cl)cc1Cl    48.7 µM (active)
O=C1C(Cl)=C(Cl)C(=O)c2ccccc21    20 µM (active)
COP(=S)(OC)Oc1ccc(Sc2ccc(OP(=S)(OC)OC)cc2)cc1    1.19 µM (active)
CC(C)(c1ccc(OCC2CO2)cc1)c1ccc(OCC2CO2)cc1 (stereo unspecified)    1.37 µM (active)

Here is another molecule to look at.
Challenge: Which value of AC50 has been reported for CCC(C)(C)c1ccc(O)c(C(C)(C)CC)c1 in the records?
Response given: 46.1 µM (active)
